Recorded values, source patent US8883798B2.

- System: production of nitric oxide (NO)
- ASSAY_TEXT: Production of nitric oxide (NO) in cultures of mouse peritoneal cells stimulated with IFN-γ plus LPS (Griess reagent)
- Format: cell-based, mice
- CONDITION_DESCRIPTION: Table 3B; substance 50 μmol·l^−1; IFN-g plus LPS; 24 h
Catalogue of molecules with associated Production of nitric oxide in % of the controls

Sample records with Production of nitric oxide in % of the controls:
- CCCCc1c(Cl)nc(N)nc1-c1ccc(F)cc1: 37.07 ± 6.31; n = 4 % of the controls
- CCCCc1c(-c2ccc(F)cc2)nc(N)nc1-c1ccsc1: 64.92 ± 2.30; n = 4 % of the controls
- CCCCc1c(Cl)nc(N)nc1-c1cccnc1: 12.07 ± 2.39; n = 8 % of the controls
- CCCCc1c(-c2cc3ccccc3o2)nc(N)nc1-c1cccs1: 55.17 ± 7.88; n = 10 % of the controls
- CCCCc1c(Cl)nc(NC(C)=O)nc1Cl: 15.32 ± 2.33; n = 6 % of the controls
- CCCCc1c(-c2cccnc2)nc(N)nc1-c1ccsc1: 62.00 ± 2.93; n = 4 % of the controls
- CCCCc1c(-c2ccco2)nc(N)nc1-c1cccs1: 31.27 ± 2.12; n = 4 % of the controls
- CCCCc1c(-c2ccc(OC)cc2)nc(N)nc1-c1ccccn1: 58.20 ± 5.42; n = 6 % of the controls
- CCCCc1c(-c2ccsc2)nc(N)nc1-c1cccs1: 57.52 ± 1.81; n = 4 % of the controls
- CCCCc1c(Cl)nc(N)nc1-c1ccncc1: 49.34 ± 4.20; n = 4 % of the controls

Return the recorded Production of nitric oxide in % of the controls value; entry: CCCCc1c(-c2ccncc2)nc(N)nc1-c1ccc(OC)cc1 63.81 ± 5.32; n = 6 % of the controls

For the molecule CCCCc1c(-c2ccc(OC)cc2)nc(N)nc1-c1ccoc1 , give its reported Production of nitric oxide in % of the controls. 71.20 ± 2.85; n = 6 % of the controls

For the molecule CCCCc1c(-c2cccs2)nc(N)nc1-c1cccs1 , report Production of nitric oxide in % of the controls. 46.09 ± 7.92; n = 6 % of the controls

* * *

Recorded melting point for the following molecules

Example cases with answers are listed next.
- Cc1c(Cl)nc(/N=C/N(C)C)nc1Cl: 84 to 86 °C
- CCCCc1c(Cl)nc(C)nc1Cl: 50 to 51 °C
- CCc1c(Cl)nc(NC=O)nc1Cl: 116 to 118 °C
- CCCc1c(Cl)nc(NC=O)nc1Cl: 92 to 94 °C
- Nc1nc(I)c(Cc2ccccc2)c(I)n1: 198 to 199 °C

Answer with the recorded melting point for the molecule listed here: CN(C)/C=N/c1nc(Cl)c(Cc2ccccc2)c(Cl)n1 63 to 65 °C

Report measured melting point; entry is CCCCc1c(Cl)ncnc1Cl 62 to 63 °C

Give reported melting point value for C#CCc1c(Cl)nc(NC=O)nc1Cl 127 to 128 °C

* * *

- Tested on: peritoneal cells of mice
- ASSAY_TEXT: Cell viability of mouse peritoneal cells (WST-1 kit)
- Assay type: cell-based
- CONDITION_DESCRIPTION: Table 3A, substance 50 μmol·l^−1, 24 h
The following compounds are shown together with reported Cell viability in % of the controls values.

Example entries begin here.
• CCCCc1c(Cl)nc(N=CN(C)C)nc1Cl = 123.21 ± 21.43 % of the controls
• CCCCc1c(Cl)nc(N)nc1-c1ccsc1 = 157.36 ± 5.16 % of the controls
• C#CCc1c(Cl)nc(N=CN(C)C)nc1Cl = 67.89 ± 7.41 % of the controls
• O=CNc1nc(Cl)c(Cc2ccccc2)c(Cl)n1 = 58.75 ± 5.34 % of the controls
• CCc1c(Cl)nc(N=CN(C)C)nc1Cl = 162.93 ± 14.68 % of the controls

Fill in Cell viability in % of the controls for CCCCc1c(-c2cccnc2)nc(N)nc1-c1cccnc1 tested with peritoneal cells of mice. 107.08 ± 2.94 % of the controls

GET Cell viability in % of the controls where system = peritoneal cells of mice and item = CCCCc1c(Cl)nc(N)nc1Cl 100.42 ± 5.77 % of the controls

Param request: Cell viability in % of the controls | system peritoneal cells of mice | item C=CCc1c(Cl)nc(N)nc1Cl 93.55 ± 19.55 % of the controls

* * *

- Tested on: peritoneal cells of mice
- ASSAY_TEXT: Cell viability of mouse peritoneal cells (WST-1 kit)
- Assay type: cell-based
- CONDITION_DESCRIPTION: Table 3B, substance 50 μmol·l^−1, 24 h
READOUT: Cell viabilities in % of the controls

* CCCCc1c(-c2ccccc2)nc(N)nc1-c1ccccc1 [Substance 67] | 93.60 ± 2.81; n = 4 % of the controls
* CCCCc1c(-c2ccsc2)nc(N)nc1-c1ccco1 [Substance 112] | 92.77 ± 7.75; n = 12 % of the controls
* CCCCc1c(-c2ccccc2)nc(N)nc1-c1cccs1 [Substance 86] | 101.59 ± 9.19; n = 8 % of the controls

# return recorded Cell viabilities in % of the controls for input CCCCc1c(Cl)nc(NCc2ccco2)nc1Cl [Substance 144] 150.27 ± 4.96; n = 8 % of the controls

* * *

- Tested on: production of prostaglandin E2 (PGE2)
- ASSAY_TEXT: Production of prostaglandin E2 (PGE2) in cultures of mouse peritoneal cells stimulated with LPS (ELISA kit)
- Type: cell-based, mice
- CONDITION_DESCRIPTION: Table 3A, substance 50 μmol·l^−1, 6 h
This listing pairs compounds with measured Production of prostaglandins in % of the controls.

Solved entries:
* CN(C)C=Nc1nc(Cl)c(-c2ccccc2)c(Cl)n1 [Substance 24] | 18.45 ± 13.68 % of the controls
* CC(C)c1c(Cl)nc(NC=O)nc1Cl [Substance 53] | 8.57 ± 0.99 % of the controls
* C=CCc1c(Cl)nc(N=CN(C)C)nc1Cl [Substance 17] | 15.72 ± 0.46 % of the controls

Next up:
Give reported Production of prostaglandins in % of the controls value for Nc1nc(Cl)c(Cc2ccccc2)c(Cl)n1 [Substance 34] 3.71 ± 2.00 % of the controls

* * *

- System: production of prostaglandin E2 (PGE2)
- ASSAY_TEXT: Production of prostaglandin E2 (PGE2) in cultures of mouse peritoneal cells stimulated with LPS (ELISA kit)
- Assay type: cell-based, mice
- CONDITION_DESCRIPTION: Table 3A, substance 50 μmol·l^−1, 6 h
// reported Production of prostaglandins in % of the controls per item

Solved cases (2 shown):
* CCc1c(Cl)nc(NC=O)nc1Cl [Substance 49] | 20.58 ± 2.13 % of the controls
* CCCCc1c(Cl)nc(N=CN(C)C)nc1Cl [Substance 19] | 14.93 ± 3.11 % of the controls

Assign Production of prostaglandins in % of the controls to the following record: O=CNc1nc(Cl)c(-c2ccccc2)c(Cl)n1 [Substance 56] 46.40 ± 0.28 % of the controls

* * *

- Tested on: production of nitric oxide (NO)
- ASSAY_TEXT: Production of nitric oxide (NO) in cultures of mouse peritoneal cells stimulated with IFN-γ plus LPS (Griess reagent)
- Assay type: cell-based, mice
- CONDITION_DESCRIPTION: Table 3B; substance 50 μmol·l^−1; IFN-g plus LPS; 24 h
Catalogue of Production of nitric oxide in % of the controls readings, one per entry.

Assign Production of nitric oxide in % of the controls to the following record: CCCCc1c(-c2ccsc2)nc(N)nc1-c1cccc2ccccc12 30.16 ± 2.96; n = 4 % of the controls

* * *

The reader will find reported Cell viabilities in % of the controls values listed item by item below.
- Tested on: peritoneal cells of mice
- ASSAY_TEXT: Cell viability of mouse peritoneal cells (WST-1 kit)
- Type: cell-based
- CONDITION_DESCRIPTION: Table 3B, substance 50 μmol·l^−1, 24 h

Here are 3 compounds together with their reported answers.
* CCCCc1c(-c2ccc(OC)cc2)nc(N)nc1-c1ccsc1 [Substance 109] | 120.58 ± 7.53; n = 8 % of the controls
* CCCCc1c(Cl)nc(N)nc1-c1ccsc1 [Substance 115] | 107.17 ± 2.03; n = 8 % of the controls
* CCCCc1c(-c2ccoc2)nc(N)nc1-c1cccc2ccccc12 [Substance 139] | 104.41 ± 10.83; n = 8 % of the controls

Specify Cell viabilities in % of the controls for CCCCc1c(-c2ccccc2)nc(N)nc1-c1cc2ccccc2o1 [Substance 116] , system peritoneal cells of mice. 95.24 ± 4.78; n = 8 % of the controls

* * *

# maps each entry to its melting point

// below: answered compounds
- CCCCCCc1c(Cl)nc(NC=O)nc1Cl [Substance 55]: 80 to 81 °C
- C=CCc1c(Cl)nc(N)nc1Cl [Substance 32, 5-allyl-2-amino-4,6-dichloropyrimidine]: 175 to 177 °C
- CCCCc1c(Cl)nc(N)nc1-c1ccsc1 [Substance 42]: 154 to 155 °C
- CCCCc1c(Cl)nc(N)nc1-c1cc2ccccc2o1 [Substance 44]: 195 to 196 °C
- O=CNc1nc(Cl)c(Cc2ccccc2)c(Cl)n1 [Substance 59]: 93 to 95 °C

Please look at this compound and report its melting point: CCCCc1c(Cl)nc(NC=O)nc1Cl [Substance 51] 82 to 83 °C

Using known records, supply melting point for C=CCc1c(Cl)nc(/N=C/N(C)C)nc1Cl [Substance 17] 80 to 81 °C

State, in one line, measured melting point of CCC(C)c1c(Cl)nc(/N=C/N(C)C)nc1Cl (centres unmarked) [Substance 21] 67 to 68 °C
